The values you see were collected from paper PMC8578629.

# Molar absorption coefficient ɛ at 630 nm per record follows
# test name: Molar absorption coefficient (ɛ) at 630 nm
# Format: physicochemical
# experimental parameters: Ethanol

{"columns": ["chemical smiles", "result"],
 "data": [
  ["CN(C)c1ccc(/C=C/c2ccc3c(O)cc(O)cc3[o+]2)cc1", "16,422 M^−1 cm^−1"],
  ["CCN(CC)c1ccc2ccc(-c3ccc(N(C)C)cc3)[o+]c2c1", "10,725 M^−1 cm^−1"],
  ["CCN(CC)c1ccc2ccc(-c3ccc(N)cc3)[o+]c2c1", "2225 M⁻¹ cm⁻¹"]
]}

Now take the following compound into account.
Query :: Return Molar absorption coefficient ɛ at 630 nm for the following compound: CCN(CC)c1ccc2ccc(/C=C/c3ccc(N(C)C)cc3)[o+]c2c1
Result :: 16,281 M^−1 cm^−1

----------
# Test system: HaCaT cells
# test name: Photodynamic therapy mechanism determination with type I/type II quenchers
# Type: cell-based, human
# experimental parameters: D-mannitol 10 mM (type I), compound 50 μΜ, light 6.6 J cm^−2
# Increase of cell survival with quencher per record follows
Your answer is read as %, so omit the unit and give the number.

{"columns": ["molecule", "uom", "Increase of cell survival with quencher"],
 "data": [
  ["CCN(CC)c1ccc2ccc(-c3ccc(N(C)C)cc3)[o+]c2c1", "%", 6],
  ["C=CC1=C(C)c2cc3[nH]c(cc4nc(cc5[nH]c(cc1n2)c(C)c5CCC(=O)O)C(CCC(=O)O)=C4C)c(C)c3C=C [PpIX, protoporphyrin IX, reference compound]", "%", 27]
]}

Query :: Return Increase of cell survival with quencher for the following molecule: CCN(CC)c1ccc2ccc(-c3ccc(N)cc3)[o+]c2c1
Result :: 14

Query :: Return Increase of cell survival with quencher for the following molecule: CCN(CC)c1ccc2ccc(/C=C/c3ccc(N(C)C)cc3)[o+]c2c1
Result :: 22

----------
# test name: Fluorescence quantum yield by the absolute method (integrating sphere)
# Format: physicochemical
# experimental parameters: in DMSO
# Quantum yield of fluorescence (Φf), mean ± SD per record follows
Your answer is read as %, so omit the unit and give the number.

{"columns": ["chemical smiles", "numeric readout"],
 "data": [
  ["CCN(CC)c1ccc2ccc(/C=C/c3ccc(N(C)C)cc3)[o+]c2c1", 3.40]
]}

Query :: Return Quantum yield of fluorescence (Φf), mean ± SD for the following compound: CCN(CC)c1ccc2ccc(-c3ccc(N(C)C)cc3)[o+]c2c1
Result :: 5.83

----------
# Tested on: HaCaT cells
# test name: Cellular uptake by HaCaT cells (overall uptake, adsorption/absorption ratio, kinetics)
# Assay type: in vitro ADME, human
# experimental parameters: initial concentration 100 μM, 4 h
# % Uptake ± SEM per record follows
Your answer is read as %, so omit the unit and give the number.

{"columns": ["compound", "subject of test", "numeric readout"],
 "data": [
  ["CCN(CC)c1ccc2ccc(-c3ccc(N)cc3)[o+]c2c1", "HaCaT cells", 1.785],
  ["C=CC1=C(C)c2cc3[nH]c(cc4nc(cc5[nH]c(cc1n2)c(C)c5CCC(=O)O)C(CCC(=O)O)=C4C)c(C)c3C=C [PpIX, protoporphyrin IX, reference compound]", "HaCaT cells", 0.659],
  ["CCN(CC)c1ccc2ccc(/C=C/c3ccc(N(C)C)cc3)[o+]c2c1", "HaCaT cells", 5.830]
]}

Now take the following compound into account.
Query :: Return % Uptake ± SEM for the following compound: CCN(CC)c1ccc2ccc(-c3ccc(N(C)C)cc3)[o+]c2c1
Result :: 3.523

----------
# % Uptake ± SEM per record follows
# Tested on: HaCaT cells
# test name: Cellular uptake by HaCaT cells (overall uptake, adsorption/absorption ratio, kinetics)
# Type: in vitro ADME, human
# experimental parameters: initial concentration 6.25 μM, 4 h
Your answer is read as %, so omit the unit and give the number.

Known % Uptake ± SEM results, listed for orientation:
{"columns": ["molecule", "numeric readout"],
 "data": [
  ["CCN(CC)c1ccc2ccc(-c3ccc(N)cc3)[o+]c2c1", 1.229],
  ["C=CC1=C(C)c2cc3[nH]c(cc4nc(cc5[nH]c(cc1n2)c(C)c5CCC(=O)O)C(CCC(=O)O)=C4C)c(C)c3C=C [PpIX, protoporphyrin IX, reference compound]", 0.694],
  ["CCN(CC)c1ccc2ccc(-c3ccc(N(C)C)cc3)[o+]c2c1", 3.416]
]}

Now take the following molecule into account.
Query :: Return % Uptake ± SEM for the following molecule: CCN(CC)c1ccc2ccc(/C=C/c3ccc(N(C)C)cc3)[o+]c2c1
Result :: 4.448

----------
# test name: Molar absorption coefficient (ɛ) at 630 nm
# Format: physicochemical
# experimental parameters: DMSO
readout type: Molar absorption coefficient ɛ at 630 nm

{"columns": ["compound", "result"],
 "data": [
  ["CCN(CC)c1ccc2ccc(-c3ccc(N)cc3)[o+]c2c1 [7NEt24′NH2, 4′-amino-7-diethylamino-benzopyrylium]", "5687 M⁻¹ cm⁻¹"],
  ["CCN(CC)c1ccc2ccc(/C=C/c3ccc(N(C)C)cc3)[o+]c2c1 [7NEt2st4′NMe2]", "15,728 M^−1 cm^−1"],
  ["CCN(CC)c1ccc2ccc(-c3ccc(N(C)C)cc3)[o+]c2c1 [7NEt24′NMe2]", "11,031 M^−1 cm^−1"]
]}

Query :: Return Molar absorption coefficient ɛ at 630 nm for the following compound: C=CC1=C(C)c2cc3[nH]c(cc4nc(cc5[nH]c(cc1n2)c(C)c5CCC(=O)O)C(CCC(=O)O)=C4C)c(C)c3C=C [PpIX, protoporphyrin IX, reference compound]
Result :: 3207 M⁻¹ cm⁻¹

Query :: Return Molar absorption coefficient ɛ at 630 nm for the following compound: CN(C)c1ccc(/C=C/c2ccc3c(O)cc(O)cc3[o+]2)cc1 [5,7OHst4′NMe2]
Result :: 15,224 M^−1 cm^−1

----------
# test name: Molar absorption coefficient (ɛ) at 630 nm
# Type: physicochemical
# experimental parameters: Methanol
readout type: Molar absorption coefficient ɛ at 630 nm

{"columns": ["chemical smiles", "result"],
 "data": [
  ["CCN(CC)c1ccc2ccc(-c3ccc(N)cc3)[o+]c2c1", "1682 M⁻¹ cm⁻¹"]
]}

Query :: Return Molar absorption coefficient ɛ at 630 nm for the following compound: CCN(CC)c1ccc2ccc(/C=C/c3ccc(N(C)C)cc3)[o+]c2c1
Result :: 22,749 M^−1 cm^−1

Query :: Return Molar absorption coefficient ɛ at 630 nm for the following compound: CN(C)c1ccc(/C=C/c2ccc3c(O)cc(O)cc3[o+]2)cc1
Result :: 15,224 M^−1 cm^−1

Query :: Return Molar absorption coefficient ɛ at 630 nm for the following compound: CCN(CC)c1ccc2ccc(-c3ccc(N(C)C)cc3)[o+]c2c1
Result :: 8,720 M^−1 cm^−1

----------
# Test system: HaCaT cells
# test name: Cellular uptake by HaCaT cells (overall uptake, adsorption/absorption ratio, kinetics)
# Type: in vitro ADME, human
# experimental parameters: initial concentration 25 μM, 4 h
readout type: % Uptake ± SEM (%)
Your answer is read as %, so omit the unit and give the number.

{"columns": ["compound", "% Uptake ± SEM / %"],
 "data": [
  ["CCN(CC)c1ccc2ccc(-c3ccc(N)cc3)[o+]c2c1", 1.977],
  ["C=CC1=C(C)c2cc3[nH]c(cc4nc(cc5[nH]c(cc1n2)c(C)c5CCC(=O)O)C(CCC(=O)O)=C4C)c(C)c3C=C [PpIX, protoporphyrin IX, reference compound]", 0.508],
  ["CCN(CC)c1ccc2ccc(/C=C/c3ccc(N(C)C)cc3)[o+]c2c1", 3.564]
]}

Now take the following compound into account.
Query :: Enter recorded % Uptake ± SEM with HaCaT cells for CCN(CC)c1ccc2ccc(-c3ccc(N(C)C)cc3)[o+]c2c1 here.
Result :: 2.745

----------
# Test system: HaCaT cells
# test name: Cellular uptake by HaCaT cells (overall uptake, adsorption/absorption ratio, kinetics)
# Type: in vitro ADME, human
# experimental parameters: initial concentration 12.5 μM, 4 h
readout type: % Uptake ± SEM (%)
Your answer is read as %, so omit the unit and give the number.

Known % Uptake ± SEM results, listed for orientation:
{"columns": ["compound", "subject of test", "% Uptake ± SEM (%)"],
 "data": [
  ["CCN(CC)c1ccc2ccc(-c3ccc(N(C)C)cc3)[o+]c2c1", "HaCaT cells", 4.156],
  ["CCN(CC)c1ccc2ccc(/C=C/c3ccc(N(C)C)cc3)[o+]c2c1", "HaCaT cells", 4.236],
  ["C=CC1=C(C)c2cc3[nH]c(cc4nc(cc5[nH]c(cc1n2)c(C)c5CCC(=O)O)C(CCC(=O)O)=C4C)c(C)c3C=C [PpIX, protoporphyrin IX, reference compound]", "HaCaT cells", 0.615]
]}

Query :: Return % Uptake ± SEM for the following compound: CCN(CC)c1ccc2ccc(-c3ccc(N)cc3)[o+]c2c1
Result :: 1.828
